Test system: S. mansoni schistosomula
Experiment: In vitro schistosomula screening (Roboworm platform), phenotype and motility
Type: cell-based, Schistosoma mansoni
Conditions: 10 μM, 72 h; hit cut-offs phenotype -0.15, motility -0.35
ENDPOINT LABEL: hit / activity against schistosomula, single-point screen

O=C(/C=C/c1ccc(CN(CCO)CCc2c[nH]c3ccccc23)cc1)NO [LAQ824]
hit

###

I'd appreciate it if you could supply pEC50 values for the items below.
Tested on: S. mansoni schistosomula
Assay: In vitro schistosomula screening (Roboworm platform), phenotype and motility
Assay type: cell-based, Schistosoma mansoni
Details: Schistosoma mansoni; 72 h, two-fold titration 10 μM–0.625 μM, single replicate, approximate; read-out: SCHISTOSOMULA EC50 Phenotype
Answers are plain numbers, as −log10 of the molar value.

CCn1cc(-c2cccc(C(F)(F)F)c2)c2sc(C(=N)NC3CCS(=O)(=O)CC3)cc2c1=O
5.89

Each molecule below has a recorded value; state its pEC50.
1. Cc1cn(CCN2CCN(c3ccccc3-c3cc(C#N)cc(C(=O)NCCCN4CCCC4)c3)CC2)c2ccccc12
2. CCN(C(=O)CO)[C@H]1CN(C(=NC#N)Nc2cccc(OC(F)F)c2)N=C1c1ccc(Cl)c(Cl)c1
3. CCOC(=O)CCNc1cc(N2CCc3ccccc3CC2)nc(-c2ccccn2)n1

1. 5.54
2. 5.32
3. 5.27

###

System: S. mansoni schistosomula
Assay: In vitro schistosomula screening (Roboworm platform), phenotype and motility
Assay type: cell-based, Schistosoma mansoni
Settings: Schistosoma mansoni; 72 h, two-fold titration 10 μM–0.625 μM, single replicate, approximate; read-out: SCHISTOSOMULA EC50 Phenotype
# note: exactly 3 µM is not below, so it is no (0); use yes (1) for EC50 strictly under it

Some solved cases for reference:
COc1ccc(CCc2nc3cc(-c4c(C)noc4C)ccc3n2CC(C)N2CCOCC2)cc1Cl (stereo not drawn) [SGC-CBP30]
no (0)
O=C(/C=C/c1ccc(CN(CCO)CCc2c[nH]c3ccccc23)cc1)NO [LAQ824]
yes (1)
CC(C)Oc1ccc(-c2c[nH]cc2CN(C)CCN)cc1 [MS023]
no (0)

Hello, I'm reviewing records and need to know if EC50 of Clc1cc2c(NC3CCCC3)nnc(-c3ccncc3)c2cc1Cl [A-196] is below 3 µM. Could you check?
yes (1)

Is it true that EC50 reported for CCCc1cc(C)[nH]c(=O)c1CNC(=O)c1cc(-c2ccc(N3CCN(C(C)C)CC3)nc2)cc2c1cnn2C(C)C [UNC1999] is less than 3 µM?
no (0)

Please determine if CCCc1cc(C)[nH]c(=O)c1CNC(=O)c1cc(-c2ccnc(N3CCN(C)CC3)c2)cc2c1cnn2C(C)C [GSK343] is below 3 µM in terms of EC50.
no (0)

###

Give CC50 for every item shown.
System: HepG2 cells
Experiment: HepG2 cell cytotoxicity, MTT assay
Assay type: cell-based, Human
Details: 20 h, read-out: CC50 (HepG2) (95% Confidence Intervals)

COc1ccccc1C(=O)Nc1cc2c(cc1N1CCCC1)n(C)c(=O)n2C
> 100 µM

# context switch: different compound, same CC50
Please fill in: CC50 reported for `CCOC(=O)CCNc1cc(N2CCc3ccccc3CC2)nc(-c2ccccn2)n1` = > 100 µM

###

Tested on: adult male and female schistosome pairs
Assay: In vitro adult schistosome screening (WHO/TDR motility, egg counts)
Type: cell-based, Schistosoma mansoni
Conditions: Schistosoma mansoni; 72 h, motility, adult females; read-out: ADULT EC50 (95% Confidence Intervals) Females
Description: In vitro screening was replicated three times on different dates to account for any biological variation. […] Following compound incubation, WHO/TDR readouts of adult worm motility, abundance of H3K36me2 (LLY-507 and BAY-598 treated worms only) in histone extracts and egg counts/well were recorded at 72 h.
Kindly state EC50 for each of the entries shown.
One number for each entry, in µM.

Below, 9 molecules whose answers are already recorded.
CCCc1cc(C)[nH]c(=O)c1CNC(=O)c1cc(-c2ccc(N3CCN(C(C)C)CC3)nc2)cc2c1cnn2C(C)C
16.1
O=C(/C=C/c1ccc(CN(CCO)CCc2c[nH]c3ccccc23)cc1)NO
16.5
Clc1cc2c(NC3CCCC3)nnc(-c3ccncc3)c2cc1Cl
16
Cc1cn(CCN2CCN(c3ccccc3-c3cc(C#N)cc(C(=O)NCCCN4CCCC4)c3)CC2)c2ccccc12
7.59
COc1ccc(CCc2nc3cc(-c4c(C)noc4C)ccc3n2CC(C)N2CCOCC2)cc1Cl (stereo not shown)
31.2
CC(C)Oc1ccc(-c2c[nH]cc2CN(C)CCN)cc1
26.3
CCn1cc(-c2cccc(C(F)(F)F)c2)c2sc(C(=N)NC3CCS(=O)(=O)CC3)cc2c1=O
24
CCOC(=O)CCNc1cc(N2CCc3ccccc3CC2)nc(-c2ccccn2)n1
11.4
CCN(C(=O)CO)[C@H]1CN(C(=NC#N)Nc2cccc(OC(F)F)c2)N=C1c1ccc(Cl)c(Cl)c1
16.5

Note: attention shifts to another entry.
Entry `CCCc1cc(C)[nH]c(=O)c1CNC(=O)c1cc(-c2ccnc(N3CCN(C)CC3)c2)cc2c1cnn2C(C)C` — recorded EC50 = 25.3

###

Tested on: S. mansoni schistosomula
Experiment: In vitro schistosomula screening (Roboworm platform), phenotype and motility
Type: cell-based, Schistosoma mansoni
Details: CC50 HepG2 / schistosomula motility EC50
ENDPOINT LABEL: SELECTIVITY INDEX Schistosomula Motility

CCOC(=O)CCNc1cc(N2CCc3ccccc3CC2)nc(-c2ccccn2)n1
16.55
CCCS(=O)(=O)c1nc(NC2CC2)cc(-c2ccc3c(ccn3C3CC(C)(C)NC(C)(C)C3)c2)n1
3.60
O=C(/C=C/c1ccc(CN(CCO)CCc2c[nH]c3ccccc23)cc1)NO
6.40
CCn1cc(-c2cccc(C(F)(F)F)c2)c2sc(C(=N)NC3CCS(=O)(=O)CC3)cc2c1=O
7.61
Clc1cc2c(NC3CCCC3)nnc(-c3ccncc3)c2cc1Cl
10.45

Field: SELECTIVITY INDEX Schistosomula Motility. Fill in for each record below.
1. CC(C)Oc1ccc(-c2c[nH]cc2CN(C)CCN)cc1
2. CCCc1cc(C)[nH]c(=O)c1CNC(=O)c1cc(-c2ccc(N3CCN(C(C)C)CC3)nc2)cc2c1cnn2C(C)C

1. 2.52
2. 11.16

Batch of 3 compounds: report SELECTIVITY INDEX Schistosomula Motility for each.
1. COc1ccccc1C(=O)Nc1cc2c(cc1N1CCCC1)n(C)c(=O)n2C
2. Cc1cn(CCN2CCN(c3ccccc3-c3cc(C#N)cc(C(=O)NCCCN4CCCC4)c3)CC2)c2ccccc12
3. Cc1sc2c(c1C)C(c1ccc(Cl)cc1)=N[C@@H](CC(=O)OC(C)(C)C)c1nnc(C)n1-2

1: 19.52; 2: 8.47; 3: 5.53

###

Assay: HepG2 cell cytotoxicity, MTT assay
Assay type: cell-based, Human
Details: human, HepG2 cells, read-out: CC50 (HepG2) (95% Confidence Intervals)
Would you kindly list CC50 at 20 h for each of these compounds?

Here are 5 compounds together with their reported answers.
O=C(/C=C/c1ccc(CN(CCO)CCc2c[nH]c3ccccc23)cc1)NO
15.6 µM
CCOC(=O)CCNc1cc(N2CCc3ccccc3CC2)nc(-c2ccccn2)n1
> 50 µM
CCn1cc(-c2cccc(C(F)(F)F)c2)c2sc(C(=N)NC3CCS(=O)(=O)CC3)cc2c1=O
31.4 µM
COc1ccc(CCc2nc3cc(-c4c(C)noc4C)ccc3n2CC(C)N2CCOCC2)cc1Cl (stereo not drawn)
> 50 µM
COc1ccccc1C(=O)Nc1cc2c(cc1N1CCCC1)n(C)c(=O)n2C
> 50 µM

The compound listed as `CCCc1cc(C)[nH]c(=O)c1CNC(=O)c1cc(-c2ccc(N3CCN(C(C)C)CC3)nc2)cc2c1cnn2C(C)C` has a reported CC50 at 20 h of 31.4 µM

###

Hi there, I'd appreciate the recorded CC50 at 20 h for every entry that follows.
Assay: HepG2 cell cytotoxicity, MTT assay
Format: cell-based, Human
Conditions: human, read-out: CC50 (HepG2) (95% Confidence Intervals)
One number for each entry, in µM.

Cc1sc2c(c1C)C(c1ccc(Cl)cc1)=N[C@@H](CC(=O)OC(C)(C)C)c1nnc(C)n1-2
16.8

Please examine the following record next.
Briefly, CC50 at 20 h measured for `CCCS(=O)(=O)c1nc(NC2CC2)cc(-c2ccc3c(ccn3C3CC(C)(C)NC(C)(C)C3)c2)n1` : 9.03

###

Consider the following molecules; for each one, report its CC50 at 20 h.
Test: HepG2 cell cytotoxicity, MTT assay
Assay type: cell-based, Human
Settings: human, HepG2 cells, read-out: CC50 (HepG2) (95% Confidence Intervals)

// known answers, use as guide
Cc1cn(CCN2CCN(c3ccccc3-c3cc(C#N)cc(C(=O)NCCCN4CCCC4)c3)CC2)c2ccccc12
23.8 µM
CCN(C(=O)CO)[C@H]1CN(C(=NC#N)Nc2cccc(OC(F)F)c2)N=C1c1ccc(Cl)c(Cl)c1
> 50 µM
CC(C)Oc1ccc(-c2c[nH]cc2CN(C)CCN)cc1
16.2 µM

Hey, quick one: what's CC50 at 20 h for each of these?
1. CCCc1cc(C)[nH]c(=O)c1CNC(=O)c1cc(-c2ccnc(N3CCN(C)CC3)c2)cc2c1cnn2C(C)C
2. Clc1cc2c(NC3CCCC3)nnc(-c3ccncc3)c2cc1Cl

29.2 µM
> 50 µM
